# normalised response annotations
System: MCF-10A
Assay: normalised response (% of control), CellTox Green; higher = less cell death (100 = DMSO, 0 = benzethonium chloride kill control)
Conditions: incubation time: 72 h

Compound | System tested | Unit | normalised response
Nc1ncn([C@@H]2O[C@H](CO)[C@@H](O)[C@H]2O)c(=O)n1 [Azacitidine] (10000 nM) | MCF-10A | % | 81.2
Cn1cnc2c(F)c(Nc3ccc(Br)cc3Cl)c(C(=O)NOCCO)cc21 [Selumetinib] (10000 nM) | MCF-10A | % | 74.4
CC(=O)O[C@@]12CO[C@@H]1C[C@H](O)[C@@]1(C)C(=O)[C@H](O)C3=C(C)[C@@H](OC(=O)[C@H](O)[C@@H](NC(=O)OC(C)(C)C)c4ccccc4)C[C@@](O)([C@@H](OC(=O)c4ccccc4)[C@H]21)C3(C)C [Docetaxel] (10 nM) | MCF-10A | % | 56.1
Nc1ncn([C@@H]2O[C@H](CO)[C@@H](O)[C@H]2O)c(=O)n1 [Azacitidine] (1000 nM) | MCF-10A | % | 101
Nc1ncn([C@@H]2O[C@H](CO)[C@@H](O)[C@H]2O)c(=O)n1 [Azacitidine] (100 nM) | MCF-10A | % | 87
COc1cc2c(cc1O)CC[C@@H]1[C@@H]2CC[C@]2(C)[C@@H](O)CC[C@@H]12 [2-methoxyestradiol] (10000 nM) | MCF-10A | % | 48.3
CC1(C)CNc2cc(NC(=O)c3cccnc3NCc3ccncc3)ccc21 [Motesanib] (10000 nM) | MCF-10A | % | 80.4
O=NN(CCCl)C(=O)NCCCl [Carmustine] (10000 nM) | MCF-10A | % | 104
